Lab note: IC50 readings collected with IRAK4 enzyme (Homo sapiens (Human), UniProt Q9NWZ3) for the following compounds.
Sequence (Q9NWZ3 whole entry): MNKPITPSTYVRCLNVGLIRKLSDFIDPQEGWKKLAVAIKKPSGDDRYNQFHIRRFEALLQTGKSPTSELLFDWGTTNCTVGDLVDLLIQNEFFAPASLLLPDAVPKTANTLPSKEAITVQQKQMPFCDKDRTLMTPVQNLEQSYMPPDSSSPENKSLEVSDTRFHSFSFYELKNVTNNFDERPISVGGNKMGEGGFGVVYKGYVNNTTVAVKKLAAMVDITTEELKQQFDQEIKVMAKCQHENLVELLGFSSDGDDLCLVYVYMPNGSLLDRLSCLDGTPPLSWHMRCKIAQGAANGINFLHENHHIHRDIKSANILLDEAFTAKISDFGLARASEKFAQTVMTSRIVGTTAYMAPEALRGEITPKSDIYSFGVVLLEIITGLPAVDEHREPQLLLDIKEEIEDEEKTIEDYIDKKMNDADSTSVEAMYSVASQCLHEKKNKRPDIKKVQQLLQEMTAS
assayReadout: IC50 (nM)

# annotated cases, reported IC50 shown
                                   compound  assayresult
0  COC(=O)NCC1CC(Nc2cc(-c3ccc4cc(C#N)cnn34)ncc2-c2cn(C3CCC(NC(=O)OC(C)(C)C)CC3)nn2)C1 (centres unmarked)            1
1  CC(C)(O)[C@H](F)Cn1cc(-c2cnc(-c3ccc4cc(C#N)cnn34)cc2N[C@H]2CC[C@H](c3cnn(C(F)F)c3)CC2)nn1            3
2  COC(=O)NCC1CC(Nc2cc(-c3ccc4cc(C#N)cnn34)ncc2-c2cn(C3CC(CNC(=O)OC)C3)nn2)C1 (centres unmarked)            1

(a) CC(C)Nc1cc(-c2ccc3cc(C#N)cnn23)ncc1-c1cn(-c2cccnc2)nn1
(b) CNc1cc(-c2ccc3cc(C#N)cnn23)ncc1-c1cn(C)nn1
(c) CNC(=O)Cn1cc(-c2cnc(-c3ccc4cc(C#N)cnn34)cc2NC(C)C)nn1
(d) CNc1cc(-c2ccc3cc(C#N)cnn23)ncc1-c1cn([C@H]2CC[C@H](NC(=O)N3CCOCC3)CC2)nn1
Challenge: Task for the reader: rank each entry by its IC50, from the minimum upward. Reply with the labels, ordered as the question asks.
Response given: c, d, a, b
(c: 1 nM, d: 2 nM, a: 3 nM, b: 14 nM)

----------
Tested on: TNFα
Experiment: IRAK4 Monocyte TNFα Cell Based Assay
Settings: cryopreserved human monocytes, LPS 50 pg/ml stimulation, TNFα by TR-FRET
assayReadout: EC50 (nM)

Sample records with EC50:
In [3]: df
Out[3]:
                                   compound  assayreadout  assayresult
0  COC(=O)NC[C@H]1C[C@H](Nc2cc(-c3ccc4cc(C#N)cnn34)ncc2-c2cn(CC#N)nn2)C1          EC50           33
1  COC(=O)NC[C@H]1C[C@H](Nc2cc(-c3ccc4cc(C#N)cnn34)ncc2-c2cn(C)nn2)C1          EC50           44
2  COC(=O)NC[C@H]1C[C@H](Nc2cc(-c3ccc4cc(C#N)cnn34)ncc2-c2nnn(C[C@@H](F)C(C)(C)O)c2F)C1          EC50          145
3  CC(C)(O)[C@H](F)Cn1cc(-c2cnc(-c3ccc4cc(C#N)cnn34)cc2N[C@H]2CC[C@H](c3nncs3)CC2)nn1          EC50            6

(a) COC(=O)NCC1CC(Nc2cc(-c3ccc4cc(C#N)cnn34)ncc2-c2cn(CC3CC(O)C3)nn2)C1 (centres unmarked) [Compound 6]
(b) CC(C)Nc1cc(-c2ccc3cc(C#N)cnn23)ncc1-n1cc([C@H]2CC[C@H](NC(=O)OC(C)(C)C)CC2)nn1
(c) COC(=O)NC[C@H]1C[C@H](Nc2cc(-c3ccc4cc(C#N)cnn34)ncc2-c2cn(CC(F)F)nn2)C1
(d) COC(=O)NC[C@H]1C[C@H](Nc2cc(-c3ccc4cc(C#N)cnn34)ncc2-c2cn([C@H]3CC[C@H](NC(=O)C4CC4)CC3)nn2)C1
(e) CNc1cc(-c2ccc3cc(C#N)cnn23)ncc1-c1cn([C@H]2CC[C@H](NC(=O)C3CC3)CC2)nn1
Challenge: Sort ascending by EC50. # list labels per requested ordering
Response given: d, a, c, e, b
(d: 9 nM, a: 19 nM, c: 38 nM, e: 62 nM, b: 121 nM)

----------
In this section, each of the molecules is paired with its reported IC50.
Biological target: UniProt Q9NWZ3

The examples below pair each entry with its known result.
In [3]: df
Out[3]:
                                   molecule  assayreadout  assayresult
0  CNc1cc(-c2ccc3cc(C#N)cnn23)ncc1-c1cn(C[C@@H](F)C(C)(C)O)nn1 [Compound 37]          IC50       < 1 nM
1  COC(=O)Cn1cc(-c2cnc(-c3ccc4cc(C#N)cnn34)cc2NC(C)C)nn1 [Compound 56]          IC50       < 1 nM
2  COC(=O)NC[C@H]1C[C@H](Nc2cc(-c3ccc4cc(C#N)cnn34)ncc2-c2cn(CC#N)nn2)C1 [Compound 16]          IC50         1 nM

# next molecule below
Challenge: If you can, please state the reported IC50 value of COC(=O)NCC1CC(Nc2cc(-c3ccc4cc(C#N)cnn34)ncc2-c2cn(C3CC(CO)C3)nn2)C1 (stereo not shown) [Compound 9] .
Response given: < 1 nM

----------
Target: IRAK4 enzyme (Homo sapiens (Human), UniProt Q9NWZ3)
assayReadout: IC50 (nM)

(P) CNc1cc(-c2ccc3cc(C#N)cnn23)ncc1-c1cn(CC(F)(F)F)nn1 [Compound 24]
(Q) CC(C)(O)[C@H](F)Cn1cc(-c2cnc(-c3ccc4cc(C#N)cnn34)cc2N[C@H]2CC[C@H](c3nnc(C(F)F)o3)CC2)nn1 [Compound 3]
Challenge: Between P and Q , which one shows the larger IC50 value? Answer format: the label of the selected item.
Response given: P

----------
Tested on: TNFα
Experiment: IRAK4 Monocyte TNFα Cell Based Assay
Settings: cryopreserved human monocytes, LPS 50 pg/ml stimulation, TNFα by TR-FRET
assayReadout: EC50 (nM)

Worked cases, EC50 given:
>>> print(df.to_string())
                                   molecule  assayresult
0  COC(=O)NC[C@H]1C[C@H](Nc2cc(-c3ccc4cc(C#N)cnn34)ncc2-c2cn(C[C@@H](F)C(C)(C)O)nn2)C1 [Compound 39]            6
1  COC(=O)NCC1CC(Nc2cc(-c3ccc4cc(C#N)cnn34)ncc2-c2cn(CC3CC(O)C3)nn2)C1 (centres unmarked) [Compound 8]           17
2  COC(=O)NCC1CC(Nc2cc(-c3ccc4cc(C#N)cnn34)ncc2-c2cn(C3CCC(NC(=O)OC(C)(C)C)CC3)nn2)C1 (centres unmarked) [Compound 22]          187
3  CC(C)(O)[C@H](F)Cn1cc(-c2cnc(-c3ccc4cc(C#N)cnn34)cc2N[C@H]2CC[C@H](c3nnc(C(F)F)o3)CC2)nn1 [Compound 3]           20
4  COC(=O)NCC1CC(Nc2cc(-c3ccc4cc(C#N)cnn34)ncc2-c2cn(C3CC(CNC(=O)OC)C3)nn2)C1 (centres unmarked) [Compound 10]           20
5  COC(=O)NC[C@H]1C[C@H](Nc2cc(-c3ccc4cc(C#N)cnn34)ncc2-c2cn(CC(=O)N3CC(F)(F)C3)nn2)C1 [Compound 14]           18
6  COC(=O)NCC1CC(Nc2cc(-c3ccc4cc(C#N)cnn34)ncc2-c2cn(C3CC(CO)C3)nn2)C1 (centres unmarked) [Compound 9]           16
7  CNc1cc(-c2ccc3cc(C#N)cnn23)ncc1-c1cn([C@H]2CC[C@H](NC(=O)N3CCOCC3)CC2)nn1 [Compound 18]           49

(P) COC(=O)NC[C@H]1C[C@H](Nc2cc(-c3ccc4cc(C#N)cnn34)ncc2-c2cn(C(F)F)nn2)C1 [Compound 4]
(Q) CC(C)(O)[C@H](F)Cn1cc(-c2cnc(-c3ccc4cc(C#N)cnn34)cc2N[C@H]2CC[C@H](c3cnn(C(F)F)c3)CC2)nn1 [Compound 15]
Challenge: Which value of EC50 is numerically greater: that of P or that of Q ? When you have decided, please share the label of that item.
Response given: P

----------
Target: IRAK4 enzyme (Homo sapiens (Human), UniProt Q9NWZ3)
pIC50: −log10 of the molar value.
assayReadout: pIC50

In [3]: df
Out[3]:
                                 testsmiles  assayresult
0  CC(C)Nc1cc(-c2ccc3cc(C#N)cnn23)ncc1-c1cn(CC(=O)N(C)C)nn1         9.00
1  COC(=O)NC[C@H]1C[C@H](Nc2cc(-c3ccc4cc(C#N)cnn34)ncc2-c2cn(C[C@@H](F)C(C)(C)O)nn2)C1       > 9.00

Challenge: Given the entry `CC(C)Nc1cc(-c2ccc3cc(C#N)cnn23)ncc1-c1cn(CCN2CCOCC2)nn1` , what pIC50 was observed with IRAK4 enzyme (Homo sapiens (Human), UniProt Q9NWZ3)?
Response given: > 9.00

Challenge: Thanks! And `CC(C)(O)[C@H](F)Cn1cc(-c2cnc(-c3ccc4cc(C#N)cnn34)cc2N[C@H]2CC[C@H](c3nncs3)CC2)nn1` ?
Response given: > 9.00

Challenge: Repeat for the following molecule: `COC(=O)NC[C@H]1C[C@H](Nc2cc(-c3ccc4cc(C#N)cnn34)ncc2-c2cn(C)nn2)C1`
Response given: > 9.00
